# subject-of-test: DNA damage-binding protein 1/Cyclin-dependent kinase 12/Cyclin-K (Homo sapiens, UniProt O75909+Q16531+Q9NYV4)
# Sequence (O75909 whole entry, the tested form may be a part): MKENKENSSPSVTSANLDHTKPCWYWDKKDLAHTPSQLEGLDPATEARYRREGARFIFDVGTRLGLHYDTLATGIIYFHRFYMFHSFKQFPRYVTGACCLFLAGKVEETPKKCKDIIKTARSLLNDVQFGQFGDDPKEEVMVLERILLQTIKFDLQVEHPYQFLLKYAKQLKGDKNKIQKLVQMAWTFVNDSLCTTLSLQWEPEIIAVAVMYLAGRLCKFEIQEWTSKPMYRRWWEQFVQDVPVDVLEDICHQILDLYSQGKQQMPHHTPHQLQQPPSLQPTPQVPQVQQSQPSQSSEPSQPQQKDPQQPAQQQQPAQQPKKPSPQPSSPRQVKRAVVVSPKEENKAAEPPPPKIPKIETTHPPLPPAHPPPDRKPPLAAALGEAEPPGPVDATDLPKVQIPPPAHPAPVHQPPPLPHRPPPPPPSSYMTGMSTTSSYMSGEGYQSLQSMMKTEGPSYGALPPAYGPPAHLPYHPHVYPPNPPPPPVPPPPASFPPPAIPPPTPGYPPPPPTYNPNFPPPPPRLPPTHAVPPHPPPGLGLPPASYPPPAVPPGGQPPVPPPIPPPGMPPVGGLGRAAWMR
# Sequence (Q9NYV4 whole entry, the tested form may be a part): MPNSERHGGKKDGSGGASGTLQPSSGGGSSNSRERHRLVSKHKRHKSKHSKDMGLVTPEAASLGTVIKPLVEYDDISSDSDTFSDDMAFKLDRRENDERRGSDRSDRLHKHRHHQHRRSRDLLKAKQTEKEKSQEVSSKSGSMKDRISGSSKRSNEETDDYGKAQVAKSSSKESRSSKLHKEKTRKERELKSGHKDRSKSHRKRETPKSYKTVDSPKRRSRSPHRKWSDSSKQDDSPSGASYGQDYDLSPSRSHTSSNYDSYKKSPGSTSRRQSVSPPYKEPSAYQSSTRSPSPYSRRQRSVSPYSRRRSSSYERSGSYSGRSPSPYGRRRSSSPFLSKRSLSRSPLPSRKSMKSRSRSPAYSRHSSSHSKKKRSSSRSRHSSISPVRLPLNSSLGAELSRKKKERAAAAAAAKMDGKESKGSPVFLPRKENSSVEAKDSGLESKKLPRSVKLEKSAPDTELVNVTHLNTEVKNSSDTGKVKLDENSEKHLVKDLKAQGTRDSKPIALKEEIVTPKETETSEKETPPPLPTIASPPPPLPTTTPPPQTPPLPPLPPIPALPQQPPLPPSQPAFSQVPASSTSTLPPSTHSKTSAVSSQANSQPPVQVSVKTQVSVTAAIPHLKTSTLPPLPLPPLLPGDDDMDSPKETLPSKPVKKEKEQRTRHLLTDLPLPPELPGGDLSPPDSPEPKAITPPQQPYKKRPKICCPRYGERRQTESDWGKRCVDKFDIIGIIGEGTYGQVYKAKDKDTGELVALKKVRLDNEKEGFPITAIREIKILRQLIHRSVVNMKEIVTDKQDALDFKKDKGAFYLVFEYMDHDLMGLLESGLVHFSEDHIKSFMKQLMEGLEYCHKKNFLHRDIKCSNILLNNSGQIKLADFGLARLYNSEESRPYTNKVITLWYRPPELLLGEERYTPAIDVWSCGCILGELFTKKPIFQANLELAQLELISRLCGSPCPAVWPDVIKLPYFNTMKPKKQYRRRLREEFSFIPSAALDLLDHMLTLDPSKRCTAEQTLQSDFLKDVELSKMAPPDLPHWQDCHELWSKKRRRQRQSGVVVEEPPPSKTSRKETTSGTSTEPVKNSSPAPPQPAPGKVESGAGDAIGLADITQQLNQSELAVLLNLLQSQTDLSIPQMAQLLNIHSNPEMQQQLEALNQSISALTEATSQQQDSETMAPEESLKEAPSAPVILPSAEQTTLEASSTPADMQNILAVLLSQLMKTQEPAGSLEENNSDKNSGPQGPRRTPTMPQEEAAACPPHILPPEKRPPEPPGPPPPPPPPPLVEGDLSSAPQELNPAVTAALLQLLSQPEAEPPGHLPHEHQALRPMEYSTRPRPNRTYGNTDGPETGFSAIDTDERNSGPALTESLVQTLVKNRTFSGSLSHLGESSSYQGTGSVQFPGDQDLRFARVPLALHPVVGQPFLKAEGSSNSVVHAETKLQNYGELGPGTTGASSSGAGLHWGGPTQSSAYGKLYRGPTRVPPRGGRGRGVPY
# Sequence (Q16531 whole entry, the tested form may be a part): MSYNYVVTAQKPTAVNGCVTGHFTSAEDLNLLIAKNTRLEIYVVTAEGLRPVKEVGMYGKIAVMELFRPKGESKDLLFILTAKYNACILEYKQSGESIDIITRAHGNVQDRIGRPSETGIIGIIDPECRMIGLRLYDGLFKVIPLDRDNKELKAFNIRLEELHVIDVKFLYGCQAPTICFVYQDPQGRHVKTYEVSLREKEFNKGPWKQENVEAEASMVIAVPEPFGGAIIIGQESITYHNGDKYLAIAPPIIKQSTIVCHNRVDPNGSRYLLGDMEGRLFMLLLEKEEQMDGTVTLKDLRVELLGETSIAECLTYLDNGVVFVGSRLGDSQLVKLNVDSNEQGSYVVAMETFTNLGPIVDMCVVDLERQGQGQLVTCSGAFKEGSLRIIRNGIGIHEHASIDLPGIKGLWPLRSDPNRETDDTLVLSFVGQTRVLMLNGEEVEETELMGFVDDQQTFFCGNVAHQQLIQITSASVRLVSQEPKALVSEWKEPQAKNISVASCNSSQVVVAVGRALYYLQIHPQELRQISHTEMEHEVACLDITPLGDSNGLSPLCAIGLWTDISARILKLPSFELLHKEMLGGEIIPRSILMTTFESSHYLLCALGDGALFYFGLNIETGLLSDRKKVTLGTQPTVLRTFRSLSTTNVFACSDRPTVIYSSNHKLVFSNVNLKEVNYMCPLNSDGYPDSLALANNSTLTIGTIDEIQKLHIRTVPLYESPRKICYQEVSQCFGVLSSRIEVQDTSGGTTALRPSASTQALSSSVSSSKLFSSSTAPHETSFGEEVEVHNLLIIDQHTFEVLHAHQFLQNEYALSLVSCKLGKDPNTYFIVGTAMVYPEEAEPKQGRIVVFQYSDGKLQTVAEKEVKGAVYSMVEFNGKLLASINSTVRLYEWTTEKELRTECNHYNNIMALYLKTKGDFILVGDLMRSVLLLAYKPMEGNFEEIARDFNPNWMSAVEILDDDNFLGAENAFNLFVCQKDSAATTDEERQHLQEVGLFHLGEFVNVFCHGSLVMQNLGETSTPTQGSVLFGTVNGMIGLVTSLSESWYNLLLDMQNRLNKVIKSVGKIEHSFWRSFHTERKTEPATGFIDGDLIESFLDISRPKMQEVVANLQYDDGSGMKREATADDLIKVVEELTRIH
# test: Molecular glue activity at human CDK12 (715 to 1052 residues)/Cyclin K/human DDB1-[…]-RBX1 expressed in baculovirus expression system assessed as Cyclin K protein degradation
quantity-measured: pEC50
pEC50 field: float, defined as -log10 of concentration (mol/L).

## Input Identify measured pEC50 associated with Cc1cccc(Nc2nc(CC(=O)Nc3ncc(C)s3)cs2)n1
## Output 6.34

All values here come from ChEMBL document CHEMBL5150002.
